# target or system: indoleamine 2, 3-dioxygenase (IDO1) (Homo sapiens, UniProt P14902)
# Construct: human peripheral blood mononuclear cells (PBMC) (PB003F; host or cells: human PBMC stimulated with IFN-gamma and LPS
# Sequence (P14902 whole entry): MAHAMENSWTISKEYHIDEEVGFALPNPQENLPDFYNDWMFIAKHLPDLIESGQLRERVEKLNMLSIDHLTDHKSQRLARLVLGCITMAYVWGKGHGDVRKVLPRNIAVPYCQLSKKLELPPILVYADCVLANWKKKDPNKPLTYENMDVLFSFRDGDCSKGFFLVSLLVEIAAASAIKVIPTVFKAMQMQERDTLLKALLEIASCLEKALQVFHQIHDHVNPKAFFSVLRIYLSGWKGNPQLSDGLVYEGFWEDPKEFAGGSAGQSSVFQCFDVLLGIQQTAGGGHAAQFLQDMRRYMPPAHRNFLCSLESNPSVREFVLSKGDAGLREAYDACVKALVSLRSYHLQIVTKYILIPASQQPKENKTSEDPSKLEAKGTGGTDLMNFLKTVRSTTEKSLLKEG
# protocol notes: PBMC IDO1 assay (kynurenine detection via mass spectrometry)
# Type: cell-based
# settings: human PBMC stimulated with IFN-γ and LPS, 2 days, kynurenine by mass spectrometry; read-out: IDO1 PBMC pIC50 (converted)
// IC50 lookup, one value per entry
Write the value in nM as a bare number.

Consider the worked cases shown below.
compound | units symbol | IC50
Cc1ccc(C(=O)NC(CC2CCN(C(=O)C(F)(F)c3ccccc3)CC2)c2ccccc2)s1 (stereo not shown) | nM | 20
CCCOc1ccc(C(=O)NC(CC2CCN(C(=O)OC(C)(C)C)CC2)c2ccccc2)cc1 (stereo not shown) | nM | 200
CC(C)(C)OC(=O)N1CCC(CC(NC(=O)c2ccc(Cl)s2)C2CCCCC2)CC1 (stereo not shown) | nM | 12.6

Continue with the compound presented below.
Notebook: CC(C)(C)OC(=O)N1CCC(CC(NC(=O)c2cc3ccccc3s2)c2ccccc2)CC1 (stereo not shown) , IC50 read as 158

---

# target or system: indoleamine 2, 3-dioxygenase (IDO1) (Homo sapiens, UniProt P14902)
# Construct: human peripheral blood mononuclear cells (PBMC) (PB003F; host or cells: human PBMC stimulated with IFN-gamma and LPS
# protocol notes: PBMC IDO1 assay (kynurenine detection via mass spectrometry)
# Format: cell-based
# settings: human PBMC stimulated with IFN-γ and LPS, 2 days, kynurenine by mass spectrometry; read-out: IDO1 PBMC pIC50 (converted)
Entries get a class label from measured IC50. See ranges: low end = under 30 nM, middle = from 30 nM up to 100 nM, high end = 100 nM and over

Example entries begin here.
molecule | target or system | group label
Cc1ncc(C(=O)NC(CC2CCN(C(=O)OC(C)(C)C)CC2)c2ccccc2)s1 (stereo not drawn) | indoleamine 2, 3-dioxygenase (IDO1) (Homo sapiens, UniProt P14902) | high end
CC(C)OC(=O)N1CCC(C[C@@H](NC(=O)c2ccc(Cl)s2)C2CC2)CC1 | indoleamine 2, 3-dioxygenase (IDO1) (Homo sapiens, UniProt P14902) | high end
COc1ccc([C@H](CC2CCN(C(=O)Oc3ccccc3)CC2)NC(=O)c2ccc(Cl)s2)cn1 | indoleamine 2, 3-dioxygenase (IDO1) (Homo sapiens, UniProt P14902) | low end
CC(C)(C)OC(=O)N1CCC(CC(NC(=O)c2ccccc2)c2ccccc2)CC1 (stereo not drawn) | indoleamine 2, 3-dioxygenase (IDO1) (Homo sapiens, UniProt P14902) | middle
COc1ccc(C(=O)NC(CC2CCN(C(=O)OC(C)(C)C)CC2)c2ccccc2)cc1 (stereo not drawn) | indoleamine 2, 3-dioxygenase (IDO1) (Homo sapiens, UniProt P14902) | middle

Query block: Class label required: CSc1ccc(C(=O)NC(CC2CCN(C(=O)OC(C)(C)C)CC2)c2ccccc2)cc1 (stereo not drawn)
Result block: high end

Query block: Class label required: COc1ccc(C(CC2CCN(C(=O)OC(C)(C)C)CC2)NC(=O)c2ccc(SC)cc2)cn1 (stereo not drawn)
Result block: middle

Query block: Class label required: CCN(CC)c1nnc(C(CC2CCN(C(=O)OC(C)(C)C)CC2)NC(=O)c2ccc(Cl)s2)o1 (stereo not drawn)
Result block: low end

Query block: Class label required: CC(C)c1ccc(C(=O)NC(CC2CCN(C(=O)OC(C)(C)C)CC2)c2ccccc2)s1 (stereo not drawn)
Result block: middle
